# target-under-test: α1C Human Adrenergic Receptor (Homo sapiens, UniProt P35348)
# Construct: The entire coding region of α1C (1401 bp); expressed in transfected cells
# Sequence (P35348 whole entry): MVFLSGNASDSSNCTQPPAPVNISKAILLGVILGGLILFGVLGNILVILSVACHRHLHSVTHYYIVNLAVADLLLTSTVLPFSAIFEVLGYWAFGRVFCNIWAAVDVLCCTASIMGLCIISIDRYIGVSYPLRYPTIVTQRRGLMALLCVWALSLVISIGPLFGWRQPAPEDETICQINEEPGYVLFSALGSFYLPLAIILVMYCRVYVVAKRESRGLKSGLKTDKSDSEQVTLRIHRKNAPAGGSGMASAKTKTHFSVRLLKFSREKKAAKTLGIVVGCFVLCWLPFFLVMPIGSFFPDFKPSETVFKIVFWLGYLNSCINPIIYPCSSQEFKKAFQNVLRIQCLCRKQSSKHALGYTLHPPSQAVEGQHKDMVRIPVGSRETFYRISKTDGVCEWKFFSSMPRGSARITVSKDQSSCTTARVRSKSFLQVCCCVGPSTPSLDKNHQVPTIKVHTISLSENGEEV
# protocol-description: Radioligand binding, [3H]prazosin, cloned human α1C adrenergic receptor
# test-settings: PKi alpha-1 1c, cloned human receptor, LM(tk-) cell membranes, mean
// Ki lookup, one value per entry
The response must be a number in nM with no trailing unit.

Please review the entries below; each comes with its answer.
compound | target-under-test | recorded-value
CCC1=C(C(N)=O)C(c2ccc([N+](=O)[O-])cc2)C(C(=O)NCCCN2CCC(c3ccccc3)(c3ccccc3)CC2)=C(CCCCN)N1 (stereo not drawn) [Example 171] | α1C Human Adrenergic Receptor (Homo sapiens, UniProt P35348) | 1.74
CCC1=C(C(=O)OCCC#N)C(c2ccc([N+](=O)[O-])cc2)C(C(=O)NCCCN2CCC(C#N)(c3ccccc3)CC2)=C(COC)N1 (stereo not drawn) [Example 220] | α1C Human Adrenergic Receptor (Homo sapiens, UniProt P35348) | 9.77
CC(=O)C1=C(C)NC(COCCN)=C(C(=O)NCCCN2CCC(c3ccccc3)(c3ccccc3)CC2)C1c1ccc([N+](=O)[O-])cc1 (stereo not drawn) [Example 237] | α1C Human Adrenergic Receptor (Homo sapiens, UniProt P35348) | 2.63

**Query** Can you share its Ki? I mean this compound: CCC1=C(C(=O)NC)C(c2ccc([N+](=O)[O-])cc2)C(C(=O)NCCCN2CCC(c3ccccc3)(c3ccccc3)CC2)=C(COCCN=[N+]=[N-])N1 (stereo not drawn) [Example 224]
**Result** 6.92

**Query** Looking for the measured Ki of CCC1=C(C(=O)O)C(c2ccc([N+](=O)[O-])cc2)C(C(=O)NCCCN2CCC(c3ccccc3)(c3ccccc3)CC2)=C(COCCN)N1 (stereo not drawn) [Example 219] , can you help?
**Result** 30.2

**Query** Look at this compound and give its reported Ki. CC1=C(C(N)=O)C(c2ccc([N+](=O)[O-])cc2)C(C(=O)NCCCN2CCC(c3ccccc3)(c3ccccc3)CC2)=C(CCCCCN)N1 (stereo not drawn) [Example 169]
**Result** 7.24
